test: Stability in Liver Microsomes (dog); type: in vitro ADME; details: 1 μM, 0.5 mg protein/mL, NADPH, 60 minutes, 37° C., pH 7.4
endpoint name: Stability in Liver Microsomes (% remaining after 1 hour incubation) Dog (%)

Here's what some known entries look like.
[
  {
    "compound": "Cc1ccc(CN(CCC(=O)O)c2nc(C3CCC(C)(C)CC3)cs2)s1 [Example 55]",
    "recorded result": 80
  },
  {
    "compound": "CC(C)c1ccc(-c2csc(N(CCC(=O)[O-])Cc3cccs3)n2)cc1.[Na+] [Reference Compound A, reference compound]",
    "recorded result": 2
  }
]

(I) O=C([O-])CCN(Cc1cccs1)c1nc(-c2ccc(-c3ccccc3)cc2)cs1.[Na+] [Reference Compound B, reference compound]
(II) O=C([O-])CCN(Cc1cccs1)c1nc(C2CCC(c3ccccc3)CC2)cs1.[Na+] (stereo not drawn) [Reference Compound E, reference compound]
Query: Pick one, I or II : lowest reported Stability in Liver Microsomes (% remaining after 1 hour incubation) Dog. Reply with the label of the item you choose.
Response: II

(1) CCCC1CCC(c2csc(N(CCC(=O)O)Cc3ccc(C)s3)n2)CC1 (stereo not drawn) [Example 21]
(2) CCc1ccc(CN(CCC(=O)[O-])c2nc(-c3ccc(N4CCCC4)cc3)cs2)s1.[Na+] [Reference Compound F, reference compound]
Query: Pick one, 1 or 2 : lowest reported Stability in Liver Microsomes (% remaining after 1 hour incubation) Dog. Reply with the label of the item you choose.
Response: 2

---

test: Stability in Liver Microsomes (dog); type: in vitro ADME; conditions: 1 μM, 0.5 mg protein/mL, NADPH, 60 minutes, 37° C., pH 7.4
endpoint name: Stability in Liver Microsomes (% remaining after 1 hour incubation) Dog (%)

[
  {
    "compound": "Cc1cc(CN(CCC(=O)O)c2nc(C3CCC(C(C)(C)C)CC3)cs2)c(C)s1 (stereo not drawn) [Example 25]",
    "readout unit": "%",
    "recorded result": 69
  },
  {
    "compound": "Cc1ccc(CN(CCC(=O)O)c2nc([C@H]3CC[C@H](c4ccccc4)CC3)cs2)s1 [Example 38]",
    "readout unit": "%",
    "recorded result": 93
  },
  {
    "compound": "Cc1ccc(CN(CCC(=O)[O-])c2nc([C@H]3CC[C@H](C(C)C)CC3)cs2)s1.[Na+] [Example 9]",
    "readout unit": "%",
    "recorded result": 92
  }
]
